B1: tRNA (parent)
chain: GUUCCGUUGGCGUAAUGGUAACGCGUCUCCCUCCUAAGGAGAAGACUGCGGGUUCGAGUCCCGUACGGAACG

- Variants of: B1
- ASSAY: yeast fitness relative to wild type (ratio to wild type); higher = fitter; tRNA-Arg(CCU), competitive growth, 37 C, YPD
Fewer inactive variants are shown than the library holds.
MEASURE NAME: yeast fitness

Field: example entries. Status: answers known.
> print(dat)
                         construct.sequence  result
1  GUUCCGUUGGCGUAAUGGUAAGGCGUCUCCCUCCUAAGGAGAAGACUGAGGGUUCGAGUCCCGUACGGAACG   0.682
2  GUUCCCUUGGCGUAAUGGUAACGCGUCUCCCUCCUAAGGAGACGACUGCGGGUUCGAGUCCCGUACGGAACG   0.739
3  GUUCCGUUGGCGUAAUGGUAACGCGUCUCCCUCGUAAGGAGAAGACUGCGGGUUCGGGUCCCGUACGGAACG   0.568
4  GUUCCGUUGGCGUAAUGGUAACGCGUCUCCCGCCUAAGGAGAAGACUGCGGGUUCAAGUCCCCUACGGAACG   ≤ 0.5
5  GUUCCGUUGGCGUAAUGGUAACGCGUCUCCCUCCUAAGGAGAGGGCUGCGGGUUUGAGUCCCGUACGAAACG   ≤ 0.5
6  GUCUCGUUGGCGUAAUGGUAACGCGUCUCCCUCCCAAGGAGAAGACUGCGGGUUCGAGUCCCGUACGGAUCG   0.544
7  GUUCGGUUGGCGCAAUGGUAACGCGUCUCCCUCCUAAGGAGAAGACUGCGGGUUCGACUCCCGUACGGAACG    0.74
8  GUUCCGUUGGCGUAAUGGUAACGCGUCUCCCUCCUGAGGAGAAGACUACGCGUUCGAGUCCCGUACGGAACG   ≤ 0.5

Item GUUCCGCUGGCGUAAUGGUAACGCGUCUCUCUCCUAGGGAGAAGAUUGCGGCUUCGAGUCCGGUACGGACCG has what recorded yeast fitness?
≤ 0.5

Now try GCUCCGUUGGCGUAAUGGUAACGCGUCUCCCUCCUAAGGAGAAGAGUGCGGGUUCGAGUCCCAUACGGAUCG .
≤ 0.5

Now try GUUCCGUUGGCGUAUUGGUAACGCGUCUCCCUCCUAAGGAGACGACUGCGGGUUCGAGUCCCGUACUGAACG .
≤ 0.5

Now try GUUCCGUUGGCGUAAUGGUUACGCGUCUCCCUCUUAAGGAAAAGACUGCGGGUUCGAGUCCCGUACGGAACG .
≤ 0.5
